Reported inhibition at 250 µM by item:
# targetOrSystem: P-selectin/PSGL-1 interaction (Homo sapiens)
# Construct: comprised of the lectin and epidermal growth factor-like (EGF) domains expressed in CHO cells; made in house; host or cells: CHO cells (P-LE)
# Sequence (P16109 42-198): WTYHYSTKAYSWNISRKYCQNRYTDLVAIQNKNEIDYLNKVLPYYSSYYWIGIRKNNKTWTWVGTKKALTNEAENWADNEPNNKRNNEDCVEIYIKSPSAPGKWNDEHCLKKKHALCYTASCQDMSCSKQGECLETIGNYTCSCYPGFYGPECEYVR
# experiment: Biacore P-Selectin/PSGL-1 Inhibition Assay (surface plasmon resonance)
# Assay type: binding
# recordedConditions: 250 uM test compound, 500 nM P.LE, immobilized PSGL-1 19ek, 10% DMSO, pH 7.4
assayEndpoint: inhibition at 250 µM (%)

• O=C(O)c1c(O)c(C2(c3ccc(Cl)cc3)CC2)nc2c(OC(F)(F)F)cccc12 = 37
• O=C(O)c1c(O)c(C2(c3cccs3)CC2)nc2c(C(F)(F)F)cccc12 = 15
• CC(C)(c1ccccc1)c1nc2c(C(F)(F)F)cccc2c(C(=O)O)c1O = 55
